B1: TPR 5TU (parent)
chain: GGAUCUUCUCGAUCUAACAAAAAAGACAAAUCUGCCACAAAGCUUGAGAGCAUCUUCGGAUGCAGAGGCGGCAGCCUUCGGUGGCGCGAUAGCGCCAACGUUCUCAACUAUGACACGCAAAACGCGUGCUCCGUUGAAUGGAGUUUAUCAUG

variants of: B1; assay: polymerase ribozyme fitness, log enrichment relative to wild type (log ratio); higher = more active; in vitro selection for triplet polymerase activity
Variants at the floor of the assay were thinned out.
Please map values of polymerase ribozyme fitness (log ratio) to classes as shown: lower range: < -3; middle range: ≥ -3 and < -1; upper range: ≥ -1

q: Where would U15A G59A A60G C69A A121C G140A land among the classes by reported polymerase ribozyme fitness (log ratio)?
a: lower range
